- Test system: U2OS
- test protocol: Multiplex assay against U2OS
- Assay type: toxicity, cell-based
- stated conditions: human, 48 h, 1 µM, compound concentration 1 uM, replicate 2

# molecule, Population Normal (%)
measured = [
    ("Oc1cccc(-c2nc(N3CCOCC3)c3oc4ncccc4c3n2)c1", 95),
    ("CN1C(=O)[C@@H](NC(=O)c2cc3ccccc3[nH]2)N=C(c2ccccc2)c2ccccc21 [DEVAZEPIDE]", 98),
    ("CCCc1cc(C)[nH]c(=O)c1CNC(=O)c1cc(-c2ccc(N3CCN(C(C)C)CC3)nc2)cc2c1cnn2C(C)C", 87),
    ("N#Cc1cccc(C(=O)Nc2cc(-c3ccccc3)nn2-c2ccccc2)c1", 95),
    ("Cc1ccc(S(=O)(=O)NC2c3ccccc3Oc3ccccc32)cc1", 97),
    ("Cc1c(P(=S)(c2ccccc2)c2ccccc2)n2ccccc2[n+]1C/C=C/c1ccccc1.[Br-]", 74),
    ("C[C@@H](Oc1cc(-n2cnc3ccc(CN4CCN(C)CC4)cc32)sc1C(N)=O)c1ccccc1C(F)(F)F", 94),
    ("CC(Cc1ccc(O)c(O)c1)C(C)Cc1ccc(O)c(O)c1 (configuration not stated) [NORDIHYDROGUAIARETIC ACID]", 93),
    ("CC(C)c1cc(Nc2nc(N3CCC[C@H](N)C3)ncc2C(N)=O)cc(C(C)C)n1", 96),
    ("N#CCNC(=O)c1ccc(-c2ccnc(Nc3ccc(N4CCOCC4)cc3)n2)cc1", 97),
    ("CC(C)[C@H](CO)Nc1nc(Nc2cccc(Cl)c2)c2ncn(C(C)C)c2n1", 94),
    ("CCCCN(CC)c1nc(C)nc2c1c(C)cn2-c1c(C)cc(C)cc1C.Cl", 98),
]
